Protocol Notes: Cell Counting Kit-8 (CCK-8) cell viability assay
Type: cell-based
Condition: T30 5 uM + NBP-14 50 nM (6th of 10 values); read-out: cell viability, T30 + NBP-14
Residues, ends and D or L forms follow the SMILES beside them.
Experimental Readout: viability (%)
Report the value in % with no unit label.

Request: Quick one: viability of CSCC[C@@H]1NC(=O)[C@H](Cc2ccc(O)cc2)NC(=O)[C@H](CO)NC(=O)[C@H](CO)NC(=O)[C@H](Cc2c[nH]c3ccccc23)NC(=O)[C@H](CCCNC(=N)N)NC(=O)[C@H](Cc2c[nH]cn2)NC(=O)[C@H](Cc2ccccc2)NC(=O)[C@H](CCC(=O)O)NC(=O)[C@H](C)NC(=O)[C@H](CCCCN)NC(=O)[C@H](Cc2c[nH]c3ccccc23)NC(=O)[C@H](Cc2c[nH]cn2)NC(=O)[C@H](C(C)C)NC1=O [Cyclic T14] (cyclo(AEFHRWSSYMVHWK)) ?
Response: 75.2

Origin of measurements: patent US12139729B2
